METHOD DESCRIPTION: Metabolic stability in rat hepatocytes
Assay type: in vitro ADME
CONDITION INFO: read-out: Estimated In Vitro t1/2
METRIC NAME: half-life at 1 μM (min)

| MOLECULE | TEST VALUE |
| --- | --- |
| C[C@]12CC[C@@H]3c4ccc(B(O)O)cc4C[C@@H](CCCCCCCCC[S+]([O-])CCCC(F)(F)C(F)(F)F)[C@H]3[C@@H]1CC[C@@H]2O (stereo partly shown) [ZB716, fulvestrant-3-boronic acid] | 28.4 |

---

METHOD DESCRIPTION: Single-dose PK and bioavailability of ZB716 in rats
Assay type: in vivo
CONDITION INFO: female, Sprague Dawley, rat, plasma; single dose, PO 6 mg/kg/day, F; read-out: Tmax (median)
METRIC NAME: Tmax (min)

| MOLECULE | READOUT UNITS | TEST VALUE |
| --- | --- | --- |
| C[C@]12CC[C@@H]3c4ccc(B(O)O)cc4C[C@@H](CCCCCCCCC[S+]([O-])CCCC(F)(F)C(F)(F)F)[C@H]3[C@@H]1CC[C@@H]2O (stereo partly shown) | min | 30 |
